- Tested on: ZR-75-1
- test.method.notes: viability inhibition at highest dose (% inhibition); higher = more growth inhibition
- protocol.conditions: 4-OH-tamoxifen in medium 0 µM; 72 h
value.type: viability inhibition at highest dose

{"molecule": "CC(C)(C#N)c1cc(Cn2cncn2)cc(C(C)(C)C#N)c1 [Anastrozole] (drug 10000 nM)", "value.type": "viability inhibition at highest dose", "quantitative.result": -9.38}
{"molecule": "COC1=CC(c2cc3ccccc3[nH]2)=N/C1=C\\c1[nH]c(C)cc1C [Obatoclax (GX15-070)] (drug 10000 nM)", "value.type": "viability inhibition at highest dose", "quantitative.result": 32.5}
{"molecule": "CC(C)c1c(C(=O)Nc2ccccc2)c(-c2ccccc2)c(-c2ccc(F)cc2)n1CC[C@@H](O)C[C@@H](O)CC(=O)O [Atorvastatin] (drug 10000 nM)", "value.type": "viability inhibition at highest dose", "quantitative.result": 48.4}
{"molecule": "C=CCNC1=C2C[C@@H](C)C[C@H](OC)[C@H](O)[C@@H](C)/C=C(\\C)[C@H](OC(N)=O)[C@@H](OC)/C=C\\C=C(/C)C(=O)NC(=CC1=O)C2=O [Tanespimycin (17-AAG)] (drug 10000 nM)", "value.type": "viability inhibition at highest dose", "quantitative.result": 31}
{"molecule": "N[C@@H](CSC(c1ccccc1)(c1ccccc1)c1ccccc1)C(=O)O [S-trityl-L-cysteine] (drug 40000 nM)", "value.type": "viability inhibition at highest dose", "quantitative.result": 9.84}
{"molecule": "CO[C@H]1C[C@@H]2CC[C@@H](C)[C@@](O)(O2)C(=O)C(=O)N2CCCC[C@H]2C(=O)O[C@H]([C@H](C)C[C@@H]2CC[C@@H](O)[C@H](OC)C2)CC(=O)[C@H](C)/C=C(\\C)[C@@H](O)[C@@H](OC)C(=O)[C@H](C)C[C@H](C)/C=C/C=C/C=C/1C [Sirolimus (Rapamycin)] (drug 1000 nM)", "value.type": "viability inhibition at highest dose", "quantitative.result": 38.1}
{"molecule": "COc1cc2ncnc(Nc3ccc(F)c(Cl)c3)c2cc1OCCCN1CCOCC1 [Gefitinib] (drug 10000 nM)", "value.type": "viability inhibition at highest dose", "quantitative.result": 13.1}
{"molecule": "CN1CCN(c2ccc3nc(-c4c(N)c5c(F)cccc5[nH]c4=O)[nH]c3c2)CC1 [Dovitinib (CHIR-258)] (drug 10000 nM)", "value.type": "viability inhibition at highest dose", "quantitative.result": -10.6}
{"molecule": "CC(=O)[C@]1(O)Cc2c(O)c3c(c(O)c2[C@@H](O[C@H]2C[C@H](N)[C@H](O)[C@H](C)O2)C1)C(=O)c1ccccc1C3=O [Idarubicin] (drug 1000 nM)", "value.type": "viability inhibition at highest dose", "quantitative.result": 61.7}
{"molecule": "O=S(=O)(c1cccc2cnccc12)N1CCCNCC1 [Fasudil (HA-1077)] (drug 50000 nM)", "value.type": "viability inhibition at highest dose", "quantitative.result": -7.56}
{"molecule": "CCN(CC)CCNC(=O)c1c(C)[nH]c(/C=C2\\C(=O)Nc3ccc(F)cc32)c1C (drug 1000 nM)", "value.type": "viability inhibition at highest dose", "quantitative.result": 5.31}
{"molecule": "O=c1[nH]c(=O)n([C@H]2C[C@H](O)[C@@H](CO)O2)cc1F [Floxuridine] (drug 10000 nM)", "value.type": "viability inhibition at highest dose", "quantitative.result": 22.7}
